- System: U2OS
- ASSAY REMARKS: Multiplex assay against U2OS
- Type: toxicity, cell-based
- CONDITION: human, 12 h, 1 µM, compound concentration 1 uM, replicate 1
Reported Population Healthy Nuclei (%) values for the following compounds.

COMPOUND	Population Healthy Nuclei (%)
CCCCCC(O)/C=C/[C@H]1C(=O)CC(O)C1C/C=C\CCCC(=O)O (stereo not given in full)	59
NCCc1cn(S(=O)(=O)c2c(Cl)nc3sccn23)c2ccccc12.O=C(O)C(=O)O	58
CCc1cc2cc(NS(=O)(=O)c3ccc(C#N)cc3)ccc2n(CC)c1=O	60
Cc1cnc(-c2cc(N3CCN(C(=O)CCS(C)(=O)=O)CC3)ncc2Cl)c(C)c1	54
N#Cc1cc(F)cc(-c2nc(-c3ccc(F)cn3)no2)c1	65

====

- Test system: HEK-293T
- ASSAY REMARKS: Multiplex assay against HEK293T
- Assay type: toxicity, cell-based
- CONDITION: human, 12 h, 1 µM, compound concentration 1 uM, replicate 1

COMPOUND	TESTED TARGET	Population Mitotic Cells (%)
O=C(NCCN1CCC(n2c(=O)[nH]c3cc(Cl)ccc32)CC1)c1ccc(F)cc1 [HALOPEMIDE]	HEK-293T	53
Cc1cccc(NC(=O)CN2CCC(c3ccccn3)CC2)c1.Cl.Cl	HEK-293T	65
CC(C)c1noc(N2CCC(COc3ccc(-c4ccc(S(C)(=O)=O)cc4)nc3)CC2)n1	HEK-293T	62
O=C1[C@H](Cc2ccc(O)cc2)N2C(=O)CCN(C(=O)NCc3ccccc3)[C@H]2CN1Cc1cccc2ccccc12	HEK-293T	55
Cc1c(CC(=O)O)c2cccnc2n1Cc1ccc(S(C)(=O)=O)cc1C(F)(F)F	HEK-293T	72
Cl.N=C(N)NC(=O)Cc1c(Cl)cccc1Cl [GUANFACINE HYDROCHLORIDE]	HEK-293T	70
Br.CS(=O)(=O)Nc1c(O)ccc2c1CCCC2C1=NCCN1 (centres undefined)	HEK-293T	59
N#Cc1cc(F)cc(-c2nc(-c3ccc(F)cn3)no2)c1	HEK-293T	61
CCCOc1ccc2[nH]cc(C3=CCNCC3)c2n1.Cl	HEK-293T	68

====

- System: HEK-293T
- ASSAY REMARKS: Multiplex assay against HEK293T
- Type: toxicity, cell-based
- CONDITION: human, 48 h, 10 µM, compound concentration 10 uM, replicate 2
MEASURED METRIC: Population Healthy Nuclei (%)

MOLECULE	TESTED TARGET	MEASURED METRIC	VALUE
CN1CCN(c2cc(-c3ccccc3)nc(N)n2)CC1	HEK-293T	Population Healthy Nuclei (%)	81
COC[C@@H](c1ccc(C(F)(F)F)cc1)N1CCN(C2(C)CCN(C(=O)c3c(C)ncnc3C)CC2)C[C@@H]1C.O=C(O)/C=C\C(=O)O [VICRIVIROC MALEATE]	HEK-293T	Population Healthy Nuclei (%)	70
Cc1sc2c(c1C)C(c1ccc(Cl)cc1)=N[C@@H](CC(=O)NCCCCCCCCNC(=O)COc1cccc3c1C(=O)N(C1CCC(=O)NC1=O)C3=O)c1nnc(C)n1-2 (some centres undefined)	HEK-293T	Population Healthy Nuclei (%)	52
CC(/C=C1\SC(=S)N(CCCC(=O)Nc2ccc(C(=O)O)c(O)c2)C1=O)=C\c1ccccc1	HEK-293T	Population Healthy Nuclei (%)	82

====

- Test system: HEK-293T
- ASSAY REMARKS: Multiplex assay against HEK293T
- Type: toxicity, cell-based
- CONDITION: human, 48 h, 10 µM, compound concentration 10 uM, replicate 1
Label y when Total Cell Count >= 700; otherwise n.

COMPOUND	LABEL CLASS
CC(C)(C)c1cc(NC(=O)Nc2ccc(-c3cn4c(n3)sc3cc(OCCN5CCOCC5)ccc34)cc2)no1	n
CCCCC(=O)N(Cc1ccc(-c2ccccc2-c2nnn[nH]2)cc1)[C@H](C(=O)O)C(C)C	y
CN1CCN(c2cc(-c3ccccc3)nc(N)n2)CC1	y
CC(C)COc1ccc(CNC(=O)N(Cc2ccc(F)cc2)C2CCN(C)CC2)cc1	n
CN(C)C(=O)Cn1cc(-c2ccc(-c3cncc4ccccc34)cc2)cn1	n
O=C1[C@H](Cc2ccc(O)cc2)N2C(=O)CCN(C(=O)NCc3ccccc3)[C@H]2CN1Cc1cccc2ccccc12	n
CCCCC1=NC2(CCCC2)C(=O)N1Cc1ccc(-c2ccccc2-c2nnn[nH]2)cc1	n
Cl.NCCc1ccc(O)c(O)c1 [DOPAMINE HYDROCHLORIDE]	n
CCCOc1ccc2[nH]cc(C3=CCNCC3)c2n1.Cl	y
Br.CS(=O)(=O)Nc1c(O)ccc2c1CCCC2C1=NCCN1 (centres undefined)	n
COC[C@@H](c1ccc(C(F)(F)F)cc1)N1CCN(C2(C)CCN(C(=O)c3c(C)ncnc3C)CC2)C[C@@H]1C.O=C(O)/C=C\C(=O)O [VICRIVIROC MALEATE]	n
CN[C@@H](C)C(=O)N[C@H](C(=O)N1CCC[C@H]1C(=O)Nc1snnc1-c1ccccc1)C1CCCCC1	n
O=C(CCCc1ccccc1)Nc1nc2ccccc2c(=O)s1	y
NCCc1cn(S(=O)(=O)c2c(Cl)nc3sccn23)c2ccccc12.O=C(O)C(=O)O	n
COc1cccc2c1c(NS(=O)(=O)c1ccc(Cl)s1)nn2Cc1cccc(CNC(=O)C(C)(C)O)c1	n
Cc1sc2c(c1C)C(c1ccc(Cl)cc1)=N[C@@H](CC(=O)NCCCCCCCCNC(=O)COc1cccc3c1C(=O)N(C1CCC(=O)NC1=O)C3=O)c1nnc(C)n1-2 (some centres undefined)	n
C[C@H](N)COC(=O)[C@@H](CCCCN)NC(=O)Cc1c(-c2ccc3ccccc3c2)[nH]c2c1ccc1ccccc12	y

====

- System: U2OS
- ASSAY REMARKS: Multiplex assay against U2OS
- Type: toxicity, cell-based
- CONDITION: human, 48 h, 1 µM, compound concentration 1 uM, replicate 1
Reported Population Mitotic Cells (%) values for the following compounds.
MEASURED METRIC: Population Mitotic Cells (%)

COMPOUND	TESTED TARGET	VALUE
Cc1noc(-c2ccc(-c3ccc(CC(=O)O)cc3)cc2)c1NC(=O)O[C@H](C)c1ccccc1Cl	U2OS	2%
CCCCC1=NC2(CCCC2)C(=O)N1Cc1ccc(-c2ccccc2-c2nnn[nH]2)cc1	U2OS	2%
CCCCC(=O)N(Cc1ccc(-c2ccccc2-c2nnn[nH]2)cc1)[C@H](C(=O)O)C(C)C	U2OS	13%
O=C(CCCc1ccccc1)Nc1nc2ccccc2c(=O)s1	U2OS	8%
Cc1cnc(-c2cc(N3CCN(C(=O)CCS(C)(=O)=O)CC3)ncc2Cl)c(C)c1	U2OS	21%
Cc1c(CC(=O)O)c2cccnc2n1Cc1ccc(S(C)(=O)=O)cc1C(F)(F)F	U2OS	34%
COc1ccccc1N1CCN(C[C@@H](C(=O)NC(C)(C)C)c2ccccc2)CC1.Cl.Cl	U2OS	22%
Cl.NCCc1ccc(O)c(O)c1 [DOPAMINE HYDROCHLORIDE]	U2OS	9%
CCCOc1ccc2[nH]cc(C3=CCNCC3)c2n1.Cl	U2OS	8%
Cc1onc(-c2ccccc2Cl)c1C(=O)N(C)c1ccc(Cl)cc1	U2OS	12%
CN[C@@H](C)C(=O)N[C@H](C(=O)N1CCC[C@H]1C(=O)Nc1snnc1-c1ccccc1)C1CCCCC1	U2OS	6%
Cc1cccc(NC(=O)CN2CCC(c3ccccn3)CC2)c1.Cl.Cl	U2OS	17%
CC[C@@H](C)Nc1nc(C)nc2c(-c3ccc(OC)nc3C)c(C)nn12	U2OS	11%
O=C1[C@H](Cc2ccc(O)cc2)N2C(=O)CCN(C(=O)NCc3ccccc3)[C@H]2CN1Cc1cccc2ccccc12	U2OS	18%
C[C@H](N)COC(=O)[C@@H](CCCCN)NC(=O)Cc1c(-c2ccc3ccccc3c2)[nH]c2c1ccc1ccccc12	U2OS	20%
Cc1sc2c(c1C)C(c1ccc(Cl)cc1)=N[C@@H](CC(=O)NCCCCCCCCNC(=O)COc1cccc3c1C(=O)N(C1CCC(=O)NC1=O)C3=O)c1nnc(C)n1-2 (stereo partly drawn)	U2OS	8%
N#Cc1c(Oc2cccc(OS(=O)(=O)CCCC(F)(F)F)c2)cccc1C(F)(F)F	U2OS	12%
CC(/C=C1\SC(=S)N(CCCC(=O)Nc2ccc(C(=O)O)c(O)c2)C1=O)=C\c1ccccc1	U2OS	6%
CN1CCN(c2cc(-c3ccccc3)nc(N)n2)CC1	U2OS	16%
N#Cc1cc(F)cc(-c2nc(-c3ccc(F)cn3)no2)c1	U2OS	3%
NCCc1cn(S(=O)(=O)c2c(Cl)nc3sccn23)c2ccccc12.O=C(O)C(=O)O	U2OS	18%
COC[C@@H](c1ccc(C(F)(F)F)cc1)N1CCN(C2(C)CCN(C(=O)c3c(C)ncnc3C)CC2)C[C@@H]1C.O=C(O)/C=C\C(=O)O [VICRIVIROC MALEATE]	U2OS	21%
CCc1cc2cc(NS(=O)(=O)c3ccc(C#N)cc3)ccc2n(CC)c1=O	U2OS	10%
COc1cccc2c1c(NS(=O)(=O)c1ccc(Cl)s1)nn2Cc1cccc(CNC(=O)C(C)(C)O)c1	U2OS	4%
O=C(NCCN1CCC(n2c(=O)[nH]c3cc(Cl)ccc32)CC1)c1ccc(F)cc1 [HALOPEMIDE]	U2OS	32%
Cl.N=C(N)NC(=O)Cc1c(Cl)cccc1Cl [GUANFACINE HYDROCHLORIDE]	U2OS	10%
CC(=O)Nc1cccc2c1c(Sc1ccc(Cl)cc1)c(C)n2CC(=O)O	U2OS	8%
CN(C)C(=O)Cn1cc(-c2ccc(-c3cncc4ccccc34)cc2)cn1	U2OS	12%
CC(C)COc1ccc(CNC(=O)N(Cc2ccc(F)cc2)C2CCN(C)CC2)cc1	U2OS	12%
CC(C)c1noc(N2CCC(COc3ccc(-c4ccc(S(C)(=O)=O)cc4)nc3)CC2)n1	U2OS	22%
CC(C)(C)c1cc(NC(=O)Nc2ccc(-c3cn4c(n3)sc3cc(OCCN5CCOCC5)ccc34)cc2)no1	U2OS	39%
CCCCCC(O)/C=C/[C@H]1C(=O)CC(O)C1C/C=C\CCCC(=O)O (stereo partly drawn)	U2OS	10%
Br.CS(=O)(=O)Nc1c(O)ccc2c1CCCC2C1=NCCN1 (stereo not drawn)	U2OS	25%

Provenance of the data: ChEMBL document CHEMBL5058577
